Assay: Blood levels in mice after intramuscular administration
Assay type: in vivo
Settings: mouse, blood, im; mice, i.m. 20 mg/kg, 60 min; read-out: Blood Level 60 minutes after administration
property: concentration at 1 h

// query concentration at 1 h value for entry C[C@@H](O)[C@H]1C(=O)N2C(C(=O)[O-])=C(SCC[N+]3(C)CCCC3)C[C@H]12
< 600 ng/mL

----------
Experiment: Half-life in phosphate buffer solution
Type: physicochemical
Conditions: 0.065 m phosphate buffer, pH 7.4, 0.065 M, pH 7.4 phosphate buffer, 37° C.; read-out: T 1/2 (solution stability) (converted)
property: half-life

Reported half-life for C[C@@H](O)[C@H]1C(=O)N2C(C(=O)[O-])=C(SCC[N+]3(C)CC[S+]([O-])CC3)C[C@H]12 (single isomer, unassigned) : what is it?
720 min

----------
Assay: Urinary recovery after intramuscular administration to mice
Assay type: in vivo
Settings: mouse, urine, im, 20 mg/kg, mice, i.m. 20 mg/kg, 0-24 hours after administration; read-out: Percentage of Dose Recovered in urine, 0-24 hours
property: dose excreted at 24 h (%)
Report as a plain number; the unit % is understood.

Using the record for C[C@@H](O)[C@H]1C(=O)N2C(C(=O)[O-])=C(SCC[N+]3(C)CCCC3)C[C@H]12 [Example 1] , report its dose excreted at 24 h.
19.5

----------
Assay: Urinary recovery after intramuscular administration to mice
Type: in vivo
Details: mouse, urine, im, 20 mg/kg, mice, i.m. 20 mg/kg, 3-6 hours after administration; read-out: Percentage of Dose Recovered in urine, 3-6 hours
Protocol: Compounds were solubilized in 0.1 M phosphate buffer pH 7. Values are from a single test; 4 mice per compound. Also shown is the urinary recovery in the mice. ***Recovery based on 0-6 hour collection
property: dose excreted at 6 h

Any idea what its dose excreted at 6 h is? The molecule is C[C@@H](O)[C@H]1C(=O)N2C(C(=O)[O-])=C(SCC[N+]3(C)CCCC3)C[C@H]12 [Example 1]
0.6%

----------
Assay: Toxicity after intracranial administration to mice
Settings: mouse, in vivo; intracranial administration to mice; average of 25 mice/compound
property: LD50

Value lookup for LD50; key = C[C@@H](O)[C@H]1C(=O)N2C(C(=O)[O-])=C(SCC[N+]3(C)CCCC3)C[C@H]12 [Example 1]
> 10 mg/kg

----------
So I've got a bunch of compounds here, and I need their MIC values.
Tested on: P. rettgeri A22424
Test: In vitro MIC, tube dilution
Format: cell-based
Details: Providencia rettgeri, A22424, tube dilution, Nutrient Broth, overnight incubation at 37° C.; additional data table
Record the value in µg/mL, omitting the unit from your answer.

Fill in the blank: the reported MIC of C[C@@H](O)[C@H]1C(=O)N2C(C(=O)[O-])=C(SCC[N+]3(C)CCSCC3)C[C@H]12 [Example 2] is ____.
0.13

Follow-up item: C[C@@H](O)[C@H]1C(=O)N2C(C(=O)[O-])=C(SCC[N+]3(C)CCOCC3)C[C@H]12 [Example 3]
0.5

// same read-out, input: C[C@@H](O)[C@H]1C(=O)N2C(C(=O)[O-])=C(SCC[N+]3(C)CCN(C)CC3)C[C@H]12 [Example 4]
1

And for C[C@@H](O)[C@H]1C(=O)N2C(C(=O)O)=C(SCCN=CN)C[C@H]12 [N-Formimidoyl Thienamycin, N-formimidoyl thienamycin, reference compound] ?
0.13
